Measured quantity: IC50 (µM)
Write the value in µM as a bare number.

Q. Find the measured IC50 of COc1ccc(Nc2cc(C)nc(Nc3ccc(-c4cc5ccccc5o4)cc3)n2)cc1 [Compound 163N] with ATG4A (Homo sapiens) as test system.
Sequence (Q8WYN0 whole entry, species assumed): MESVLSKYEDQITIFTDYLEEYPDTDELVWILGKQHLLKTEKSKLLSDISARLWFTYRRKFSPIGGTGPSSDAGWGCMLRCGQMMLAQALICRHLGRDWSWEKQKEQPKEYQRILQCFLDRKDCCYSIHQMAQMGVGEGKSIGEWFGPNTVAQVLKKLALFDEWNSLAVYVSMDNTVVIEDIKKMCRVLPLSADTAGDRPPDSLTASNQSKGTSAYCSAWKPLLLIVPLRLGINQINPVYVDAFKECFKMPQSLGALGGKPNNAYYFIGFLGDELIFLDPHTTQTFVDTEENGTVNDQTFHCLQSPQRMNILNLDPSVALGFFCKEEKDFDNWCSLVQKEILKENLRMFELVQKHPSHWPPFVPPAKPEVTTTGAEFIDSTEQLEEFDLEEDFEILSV
A. 53.7

###

System: U87 cells
Experiment: CCK-8 cell viability assay, U87
Assay type: cell-based
Condition summary: Homo sapiens, U-87 MG; CCK-8 assay, 48 h
Measured quantity: pIC50
Lab note — pIC50 values are minus log10 of concentrations in M.

Q. Dear colleague, please send me the reported pIC50 for COc1ccc(Nc2cc(C)nc(Nc3ccc(-c4cc5ccccc5o4)cc3)n2)cc1 [Compound 163N] when you can.
A. 4.98

###

Could you please report measured IC50 for the items listed next?
System: HL60 cells
Experiment: CCK-8 cell viability assay, HL60
Type: cell-based
Condition summary: Homo sapiens, HL-60; CCK-8 assay

Q. Dear colleague, please send me the reported IC50 for Cc1ccc(/C=C/c2cc(O)cc(=O)[nH]2)o1 when you can.
A. > 100 µM

Q. Dear colleague, please send me the reported IC50 for COc1c2c(cc3oc(=O)c4c5cc(O)c(O)cc5oc4c13)OCC2 when you can.
A. 60.7 µM

Q. Dear colleague, please send me the reported IC50 for Nc1cc(O)nc(/C=C/c2ccc(Cl)cc2)c1 when you can.
A. > 100 µM

Q. Dear colleague, please send me the reported IC50 for CCN1C(=O)/C(=C\c2cn(CC(=O)O)c3ccccc23)C(=O)N(c2ccc(Cl)cc2)C1=S when you can.
A. > 100 µM

Q. Dear colleague, please send me the reported IC50 for COc1cccc(-c2cc3nc(-c4cccnc4)c(C#N)c(N)n3n2)c1 when you can.
A. > 100 µM

###

Measured target: ATG4B (Homo sapiens)
Sequence (Q9Y4P1 1-393): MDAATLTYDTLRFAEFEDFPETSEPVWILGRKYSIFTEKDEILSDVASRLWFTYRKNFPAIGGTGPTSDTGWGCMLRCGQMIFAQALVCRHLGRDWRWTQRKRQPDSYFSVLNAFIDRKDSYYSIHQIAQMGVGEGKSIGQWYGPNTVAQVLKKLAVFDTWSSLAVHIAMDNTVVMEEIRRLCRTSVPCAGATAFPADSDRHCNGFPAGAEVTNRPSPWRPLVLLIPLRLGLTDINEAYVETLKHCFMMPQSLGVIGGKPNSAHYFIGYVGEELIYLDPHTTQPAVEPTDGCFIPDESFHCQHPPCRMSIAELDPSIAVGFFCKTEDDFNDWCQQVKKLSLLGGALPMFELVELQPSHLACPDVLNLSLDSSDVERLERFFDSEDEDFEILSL
Could you please report measured IC50 for the items listed next?
Write the value in µM as a bare number.

Q. Dear colleague, please send me the reported IC50 for CCN1C(=O)/C(=C\c2cn(CC(=O)O)c3ccccc23)C(=O)N(c2ccc(Cl)cc2)C1=S when you can.
A. 7.37

Q. Dear colleague, please send me the reported IC50 for O=C(Nc1ccc(-c2cc3ccccc3o2)cc1)c1ccco1 when you can.
A. 8.98

Q. Dear colleague, please send me the reported IC50 for Nc1cc(O)nc(/C=C/c2ccco2)c1 when you can.
A. 13.8
